The values you see were collected from ChEMBL document CHEMBL1201862.

Listing: GI50 of selected compounds
- System: KM12
- method_description: NCI tumour cell line growth inhibition, 48 h
Active and inactive are the calls of the source. No stated cut-off is given here; in the data, active = GI50 up to about 1.1 µM and inactive = higher.

Here is how some compounds turned out for GI50.
{"columns": ["compound", "target_system", "GI50"],
 "data": [
  ["COC(=O)c1ccc(Nc2nc3[nH]cnc3c(=O)[nH]2)cc1", "KM12", "> 100 µM (inactive)"],
  ["CCOC(=O)C1(O)C(=O)C2=C3C(=O)OC(C4OC(=O)c5c(c(O)c(O)c(O)c5C31)-c1c(cc(O)c(O)c1O)C(=O)OC1COC(=O)c3cc(O)c(O)c(O)c3-c3c(cc(O)c(O)c3O)C(=O)OC14)[C@@H]2O (some centres not stated)", "KM12", "33.7 µM (inactive)"],
  ["Cn1ccnc1Cn1cc(-c2cccc(-c3cn[nH]c3)c2)cn1", "KM12", "> 100 µM (inactive)"],
  ["N#C/C(=C/c1cccnc1)C(=O)c1ccccc1", "KM12", "> 100 µM (inactive)"],
  ["C=C(CC(=O)Nc1ccc(C(=O)OC)o1)C(=O)OC", "KM12", "19.9 µM (inactive)"]
]}

Lookup: // fetch KM12 GI50 for `COc1ccc2c(ccc3c(C(=O)NCCCN(C)CCCNC(=O)c4cn(C)c5c4ccc4cc(OC)ccc45)cn(C)c32)c1`
Found: 1.56 µM (inactive)

Lookup: // fetch KM12 GI50 for `CCNC(=S)/N=c1\sc(NCC)nc2sc3c(c12)CCN(N1CCc2c(sc4nc(NCC)s/c(=N\C(=S)NCC)c24)C1)C3`
Found: 40.2 µM (inactive)

Lookup: // fetch KM12 GI50 for COc1ccc(N[S+]([O-])CCc2ccccc2)cc1 (configuration not stated)
Found: > 100 µM (inactive)

Lookup: // fetch KM12 GI50 for COc1ccc(C2CC(c3cc(C)ccc3O)=NC(N)=N2)cc1 (configuration not stated)
Found: > 100 µM (inactive)

Lookup: // fetch KM12 GI50 for `O=C1/C(=C\c2cccs2)Oc2ccccc21`
Found: 59.4 µM (inactive)
